# Test system: Escherichia coli TOP10;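 note: peptides expressed intracellularly from a pBAD plasmid library in pooled LB shake-flask culture, induced with 0.3% L-arabinose, DNA abundance read by NGS, three biological replicates, DESeq2 with apeglm shrinkage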
# test_protocol: shrunken log2 fold change of peptide-encoding DNA abundance (4.5 h post-induction vs induction); higher = less antimicrobial activity (less host growth inhibition)
# condition_context: time post-induction: 4.5 h; library: site-saturation at positions 5, 18, 19, 20
Classes based on shrunken log2 fold change: label 0 (below -0.2), label 1 (-0.2 to below 0.2), label 2 (0.2 or more)

Check out these entries, answers already filled in.
RRIRWRPPRLPRPRPRPRFFPRP : label 2
RRIRDRPPRLPRPRPRPWDRPRP : label 1
RRIRTRPPRLPRPRPRPILRPRP : label 1
RRIRPRPPRLPRPRPRPTINPRP : label 0
RRIRKRPPRLPRPRPRPFSYPRP : label 0
RRIRIRPPRLPRPRPRPVFCPRP : label 0
RRIRTRPPRLPRPRPRPFGRPRP : label 1
RRIRDRPPRLPRPRPRPTMHPRP : label 2

query: Where would `RRIRTRPPRLPRPRPRPCNMPRP` land among the classes by reported shrunken log2 fold change?
result: label 1

query: Where would `RRIRCRPPRLPRPRPRPMDRPRP` land among the classes by reported shrunken log2 fold change?
result: label 1

query: Where would `RRIRPRPPRLPRPRPRPTLQPRP` land among the classes by reported shrunken log2 fold change?
result: label 2

query: Where would `RRIRPRPPRLPRPRPRPRDSPRP` land among the classes by reported shrunken log2 fold change?
result: label 2

query: Where would `RRIRWRPPRLPRPRPRPPFTPRP` land among the classes by reported shrunken log2 fold change?
result: label 2

query: Where would `RRIRDRPPRLPRPRPRPFANPRP` land among the classes by reported shrunken log2 fold change?
result: label 1
